Measured values drawn from ChEMBL document CHEMBL1201862 for this set.

Test system: M14
Assay: NCI tumour cell line growth inhibition, 48 h
Active and inactive are the calls of the source. Rule as the data show it: active = GI50 up to about 1.1 µM and inactive = higher.
measurement.kind: GI50

| compound | assay.result |
| --- | --- |
| Cc1cc(S(=O)(=O)NC2=Nc3cccc4cccc(c34)N2)c(S)cc1Cl | 65.2 µM (inactive) |
| NCCCC1NC(=O)/C(=C(O)/C=C/C2CCC[C@@H]2CC2SCCS2)C1=O (stereo not given in full) | > 100 µM (inactive) |
| CCOc1ccc(/N=N/C2C(=O)N(C(=O)CC(=O)Nc3ccccc3)N=C2C)cc1 (stereo not given) | 58.1 µM (inactive) |

// recorded GI50 for OC(CCl)CN1CC[N+]2(CC1)CC[N+]1(CCN(CC(O)CCl)CC1)CC2 (stereo not given) [PROSPIDIUM CHLORIDE] : > 50 µM (inactive)

// recorded GI50 for Nc1ccn([C@@H]2C[C@H](CO)[C@@H](O)[C@H]2O)c(=O)n1 : > 57.7 µM (inactive)

// recorded GI50 for CCOC(=O)c1c(SC(=O)C(C)(C)Oc2ccc(Cl)cc2)n(-c2ccccc2)c(=S)n(-c2ccccc2)c1=O : 30.3 µM (inactive)

// recorded GI50 for CCc1cn2c(/C=N/N=C(N)N)c(-c3cc(C)c(Cl)cc3Cl)nc2s1 : 1.65 µM (inactive)

// recorded GI50 for COC(=O)CCc1ccc2c(c1)C(=O)CC2 : > 100 µM (inactive)

// recorded GI50 for CC(C)(C)C1=CC(=C2C=Cc3ccccc3O2)C=C(C(C)(C)C)C1=O : 3.55 µM (inactive)
